- Assayed Target: MAO-A human - recombinant (Homo sapiens)
- Sequence (P21397 whole entry): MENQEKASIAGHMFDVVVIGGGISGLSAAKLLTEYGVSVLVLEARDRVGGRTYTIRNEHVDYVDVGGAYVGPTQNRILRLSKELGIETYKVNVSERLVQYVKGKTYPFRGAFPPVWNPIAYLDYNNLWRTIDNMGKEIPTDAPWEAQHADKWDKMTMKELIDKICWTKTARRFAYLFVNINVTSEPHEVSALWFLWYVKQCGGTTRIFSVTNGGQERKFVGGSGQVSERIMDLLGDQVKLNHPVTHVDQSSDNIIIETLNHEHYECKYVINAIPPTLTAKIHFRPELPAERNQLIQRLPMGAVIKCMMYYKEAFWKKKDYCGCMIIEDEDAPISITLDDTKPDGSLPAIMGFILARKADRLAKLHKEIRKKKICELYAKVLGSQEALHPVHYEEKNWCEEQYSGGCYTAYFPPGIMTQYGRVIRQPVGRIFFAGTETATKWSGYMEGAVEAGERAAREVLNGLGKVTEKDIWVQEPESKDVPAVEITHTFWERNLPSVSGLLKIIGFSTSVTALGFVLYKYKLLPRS
- Protocol Details: Monoamine oxidase A (MAO-A) assay (MAO-Glo Assay)
- Study Conditions: MAO substrate 40 µM; 1 hour at room temperature; read-out: MAO A binding
Measured IC50 values are reported for all entries that follow.
Express it in nM; write the number only.

Cn1c2ccncc2c2ccc(N3CCN(CC(O)CF)CC3)nc21 (stereo not drawn) [Example 12] : 940
OC(CF)COC1CCN(c2ccc3c(n2)[nH]c2ccncc23)CC1 (stereo not drawn) [Example 10] : 790

## Input What measured IC50 goes with Cn1c2ccncc2c2ccc(N3CCC(OCC(O)CF)CC3)nc21 (stereo not drawn) [Example 5] ?
## Output 430

Each recorded value in this set is attributed to patent EP3118202A1.
